study.target: HLA-A*02:01 (Homo sapiens, UniProt P04439, D140Y/D185E/D98H/E176V/E277Q/G131W/G231S/I119V/I121R/I166T/I218V/L300P/L318F/N151K/N90K/P208A/P217A/Q86G/Q94H/R138H/R169H/T345S)
assay.protocol: MHC binding assay (UV-ligand exchange, anti-β2m ELISA, peptide exchange yield)
experimental.setup: binding to HLA-A*02:01
observable: Peptide exchange (MHC class I binding score, peptide exchange yield)

The following substances have reported results that may help.
301 (FLVEDLVDSL; listed as Homo sapiens) [compound 301] = “+++” (>50 = +++)
69 (FQLDPSSGVLVTV; listed as Homo sapiens) [compound 69] = “+++” (>50 = +++)
3 (SLASKLTTL; listed as Homo sapiens) [compound 3] = “++++” (>75% = ++++)
429 (GLVNDLARV; listed as Homo sapiens) [compound 429] = “++” (>20% = ++)

Which Peptide exchange (MHC class I binding score, peptide exchange yield) reading was recorded for the substance 275 (YLVYILNEL; listed as Homo sapiens) [compound 275] ?
“++” (>20% = ++)
